Measured growth inhibition of individual entries
Assay: NCI Yeast Anticancer Drug Screen. Data for the sgs1 mgt1 strain (AID 161);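 also: 0% = growth of cultures given vehicle only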
Conditions: S. cerevisiae sgs1 mgt1 strain, at 50.0 µM, hits give high values
This is part of a sample that, as a whole, favours compounds with a hit. Of some 79,000 tested, about 15% had one in any assay.
The figure you give is taken to be in %; do not add the unit.

Cc1c(C)c2ccc(OCC(O)COC(C)C)c(C)c2oc1=O (stereo unspecified) | -2.15
Cc1ccc(S(=O)(=O)N/N=C/C(C)C)cc1 | 4.75
C#CCOCCC(C(=O)O)C(=O)O | 8.6
CC(=O)CCc1ccccc1 | -0.9
O=C(CCCc1ccccc1)NO | 17.5
CN=C(NC#N)NCCSCc1nc[nH]c1C | -17.5
BrC1c2ccccc2-c2nc3ccccc3nc21 (stereo unspecified) | 1.6
Cc1ccc(S(=O)(=O)N2CC(CCl)N(S(=O)(=O)c3ccc(C)cc3)CC2CCl)cc1 (stereo unspecified) | 20.6

Give the measured growth inhibition of C=C1CC(C2CCC(C)(C)C2)OC1=O (stereo unspecified) .
9.15

growth inhibition for O=C(CN1CCC(O)(c2ccc(F)cc2)CC1)N1CCN(C/C=C/c2ccccc2)CC1 ?
9.8

# growth inhibition lookup, item O=Cc1ccc(OCc2cccc([N+](=O)[O-])c2)cc1
26.4

###

Test: NCI Yeast Anticancer Drug Screen. Data for the rad50 strain (AID 155);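 also: 0% = growth of vehicle-only cultures of the same strain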
Settings: S. cerevisiae rad50 strain growth inhibition; at 50.0 µM; hits give high values
The panel holds about 79,000 compounds, 15% with a hit somewhere; the sample as a whole holds those more often.
EXPERIMENTAL_ENDPOINT: growth inhibition (%)
Only the number, expressed in %, is required.

Tell me the measured growth inhibition of CC1(C2(C)CC2(Br)Br)CC1(Br)Br (configuration not stated) , please.
11.4

Could you tell me which growth inhibition is on file for O=C([O-])c1ccc(C(=O)[O-])cc1.O=C([O-])c1ccc(C(=O)[O-])cc1.[Mo+2].[Mo+2] ?
-38.6

###

Catalogue of compounds with associated growth inhibition
Experiment: NCI Yeast Anticancer Drug Screen. Data for the mec2-1 strain (AID 157)
Conditions: S. cerevisiae mec2-1 strain, at 50.0 µM, hits give high values
The panel holds about 79,000 compounds, 15% with a hit somewhere; the sample as a whole holds those more often.
Write it as a number; the unit % goes unstated.

O=C1C2=C(Nc3cc(Cl)ccc3N2)OC1c1ccc(C2OC3=C(Nc4ccc(Cl)cc4N3)C2=O)cc1 (stereo not drawn) | 11.2

Need growth inhibition, item COc1cc(/C=C/c2ccccn2)oc(=O)c1
-6.7

I have this compound here, CCNC(=O)OCCN(C)CCOC(=O)NCC , and I need its recorded growth inhibition.
9.55

Param item = Cc1c2c(n3c(nc4ccccc43)c1C#N)N(c1ccc(Cl)cc1)CC2 ; retrieve measured growth inhibition.
-1.3

###

Test: NCI Yeast Anticancer Drug Screen. Data for the sgs1 mgt1 strain (AID 161);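 also: 0% = growth of cultures given vehicle only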
Conditions: S. cerevisiae sgs1 mgt1 strain, at 50.0 µM, hits give high values
Compounds without any hit were thinned out: in the full panel of roughly 79,000, 15% have a hit.
EXPERIMENTAL_ENDPOINT: growth inhibition (%)
Report the figure in % without appending any unit label.

Past entries and their recorded results:
O=C(NC(=S)Nc1cc(C(F)(F)F)ccc1Cl)c1ccccc1F | 0.35
O=c1[nH]c(-c2ccccc2N=NN2CCCCC2)nc2ccccc12 | -2.6
CCCCCC/C=C/C(N)=O | -7.8
COc1ccc(Nc2ccnc(N)n2)cc1 | 1.25

I have this molecule here, CC(C)(O)C#Cc1ccccc1 , and I need its recorded growth inhibition.
-0.95

I have this molecule here, CC1(C)OC2COC(CNCC3OCC4OC(C)(C)OC34)C2O1 (configuration not stated) , and I need its recorded growth inhibition.
-6.75

Value lookup for growth inhibition; key = COC(=O)C1C2OC(C(Br)C2Br)C1C(=O)OC (configuration not stated)
-1.15

Reported growth inhibition for O=[N+]([O-])c1ccc(-n2cnc3c(Cl)ncnc32)cc1 : what is it?
14.6

Item under review: CC(=O)OC[C@]1(O)CC[C@@]23CC1C[C@@H]2CCC1C(C)(C)CCC[C@@]13C (some centres not stated) . Reported growth inhibition?
64.8

Request the reported growth inhibition associated with CCOC(=O)C12CCCCC1=CC1(CC2)SCCS1 (configuration not stated)
-30.5

Requested field: growth inhibition. Item: C1CCC(C(C2CCCCC2)C2CCCCC2)CC1
-8.6

Fill blank: measured growth inhibition of the molecule OC(c1ccncc1)(c1ccc(Cl)cc1)c1cccs1 (configuration not stated) is ____.
6.95

# lookup: growth inhibition of COC(=O)/C=C\C1(CC(C)C)N=C(c2ccccc2)OC1=O (configuration not stated)
15.8

Requested field: growth inhibition. Item: CC(C)CCCC(C)C1CCC2C3=CCC4CC(=O)CCC4(C)C3CCC21C (configuration not stated)
4.65

Which growth inhibition is reported for this molecule? O=C1CCCCC1COCC1CCCCC1=O (configuration not stated)
-2.15

###

Quick reference for growth inhibition among some compounds
Assay: NCI Yeast Anticancer Drug Screen. Data for the rad50 strain (AID 155);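 also: 0% = growth of vehicle-only cultures of the same strain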
Conditions: S. cerevisiae rad50 strain growth inhibition; at 50.0 µM; hits give high values
Compounds without any hit were thinned out: in the full panel of roughly 79,000, 15% have a hit. Where a SMILES comes first, the peptide text is derived from it. The star is where a group is joined. Boc = CC(C)(C)OC(=O)*
Answer in %, number only, no unit symbol.

Take a look at these entries with their results.
Cc1ccc(C2(c3ccccc3)c3ccccc3C(=O)N2c2ccccc2)cc1 (centres undefined) | 97
C=CCN1C(SC)=NC(=O)C1(c1ccccc1)c1ccccc1 | 14.8
COc1ccc(CCN=C(C)c2cc(Cl)cc(Cl)c2O)cc1OC | 31.1

# input compound: Cc1noc2c1C(=O)CCC2 ; wanted: its growth inhibition
-3.3

Form field: reported growth inhibition of COC(=O)C(Cc1c[nH]c2ccccc12)NC(=O)C(Cc1c[nH]c2ccccc12)NC(=O)C(Cc1c[nH]c2ccccc12)NC(=O)C(Cc1c[nH]c2ccccc12)NC(=O)OC(C)(C)C (centres undefined) (Boc-WWWW-OMe; configuration not given here)
3.35

What value of growth inhibition has been reported for the following compound? O=C(O)c1ccc(Br)cc1
5.1

Entry CCC(C(O)c1ccc(Cl)cc1)[N+](=O)[O-] (centres undefined) has what growth inhibition?
29.9

Look up growth inhibition for this compound: Brc1c(NC2=NCCN2)ccc2nccnc12
6.2

###

Assay: NCI Yeast Anticancer Drug Screen. Data for the mec2-1 strain (AID 157)
Conditions: S. cerevisiae mec2-1 strain, at 50.0 µM, hits give high values
Experimental: Growth inhibition of yeast strains with defined genetic alterations is measured as a screen for potential anti-cancer activity. Selected strains with alterations in DNA damage repair or cell cycle control were exposed to compounds and growth inhibition was measured relative to vehicle treated controls. The strain used in this assay is mec2-1
Compounds without any hit were thinned out: in the full panel of roughly 79,000, 15% have a hit. Calls of active or inactive are those of the source. Cut-off read from the data, not from the text of the source: active = growth inhibition above about 70%; inactive = the rest.
EXPERIMENTAL_ENDPOINT: growth inhibition

Here's what some known entries look like.
Cc1c([N+](=O)[O-])cc(C(=O)O)cc1[N+](=O)[O-] | -0.15% (inactive)
CC(=O)Nc1ccc(/C=C2\SC(=S)N(C=C(C#N)C#N)C2=O)cc1 | 12.2% (inactive)
CC(C)(O)C(O)(c1ccccc1)c1ccccc1 | 2.75% (inactive)
COC(=O)c1ccc(C(=O)OC)nc1 | -2.1% (inactive)
CCOC(=O)c1c(NCc2ccccc2)n(-c2ccccc2)c(=S)n(-c2ccccc2)c1=O | -6.8% (inactive)

What measured growth inhibition goes with COc1cc(/C=C(\C#N)c2ccccc2)cc(OC)c1 ?
-13.5% (inactive)

Consider the compound COc1ccc(C(O)C2CC(=O)NN=C2C)cc1OC (stereo unspecified) and give its measured growth inhibition.
-0.85% (inactive)

So what does the record say about growth inhibition for Nc1ccc(OCC(O)CN2CCN(c3ccccc3)CC2)cc1 (stereo unspecified) ?
4.15% (inactive)

###

Each entry below lists one item and its recorded growth inhibition value.
Assay: NCI Yeast Anticancer Drug Screen. Data for the bub3 strain (AID 167)
Details: S. cerevisiae bub3 mutant strain, at 50.0 µM, hits give high values
The panel holds about 79,000 compounds, 15% with a hit somewhere; the sample as a whole holds those more often.
Answer with a number only, understood to be in %.

Observe how each entry below is paired with its result.
CC(C)=CC(=O)OC1C2C(CC(C)C3C(O)CC(=O)C13C)OC(=O)C2C (stereo unspecified) | -27.9
CCCCCCCCCCCCCCCCc1c(C(=O)OC)[nH]c(=S)[nH]c1=O | -29.1
O=C(O)[C@@H]1[C@@H]2C[C@@H]3[C@H](OC(=O)[C@@H]31)[C@@H]2O | -15.8

Which growth inhibition is reported for this molecule? CCOC(=O)/C=C\SCC(=O)OCC
4.1

Any idea what its growth inhibition is? The molecule is O=[N+]([O-])c1ccc2c(c1)C(=Nc1ccccc1)c1cc([N+](=O)[O-])cc([N+](=O)[O-])c1-2
3.5

Value lookup for growth inhibition; key = Cc1ccc(S(=O)(=O)OC2C3OC(C)(C)OC3OC2C2CSC(=S=O)S2)cc1 (stereo unspecified)
-3.15

Quick check: growth inhibition of Nc1nc(N)c(N=Nc2cc(Cl)cc(Cl)c2)c(=O)[nH]1 ?
3.15

Tell me the measured growth inhibition of C/C(=C\C(=O)c1ccccc1)c1ccccc1 , please.
12.2

growth inhibition lookup needed for OCc1ccccc1C1CSCSC1 , thanks.
-21.4

Need growth inhibition of N#CC(c1ccccc1)N(CCc1ccccc1)C(=O)c1ccc(C(=O)N(CCc2ccccc2)C(C#N)c2ccccc2)cc1 (stereo unspecified) , thanks.
6.6

Request the reported growth inhibition associated with COc1cc(/C=C(\C#N)c2ccccn2)cc(Br)c1O
25.8

Reported growth inhibition, molecule Cc1ccc(O)c(C(=O)C[n+]2ccccc2)c1 : ____
0.1

Consider the molecule COc1cc(CC2c3cc(OC)c(OC)cc3CCN2C)c(Oc2cc3c(cc2OC)-c2c(OC)c(OC)c(OC)c4c2C(C3)N(C)CC4)cc1OC (stereo unspecified) and give its measured growth inhibition.
0.3

Item O=S(=O)(O)c1cccc2ccc(O)cc12 has what recorded growth inhibition?
-11.1

Reported growth inhibition, molecule C=CCN1C(=O)C(c2ccccc2)(c2ccccc2)NC1=S : ____
-30.6

Sample C=C1CC(C2CCC(C)(C)C2)OC1=O (stereo unspecified) — what was its growth inhibition?
2.15

Look up growth inhibition for this molecule: Cc1ccc(NC(=O)c2cc3c(cc2Cl)Sc2nccn2S3(=O)=O)cc1
11.4

Given the molecule CC(=O)Oc1ccc2cc(Br)ccc2c1N(C(C)=O)C(C)=O , what is its reported growth inhibition?
24.6

// returns reported growth inhibition for input CCN(CC)c1ccccc1C
2.25

Look up growth inhibition: COC(=O)C1C2OC(C(Br)C2Br)C1C(=O)OC (stereo unspecified)
-1.65

Can you look up the measured growth inhibition of Cn1c(=O)c2[nH]c(Br)nc2n(C)c1=O for me?
13.3
